Molecular target: T1, human CD3e (T-cell surface glycoprotein CD3 epsilon chain) (human, UniProt P07766 23-207)
T1 construct: Target of the anti-hCD3e antibodies on human PBMC, Jurkat cells and cells expressing human CD3e; on T cells it is part of the CD3/TCR complex; also called hCD3e; CD3e on human PBMC
Test: flow cytometry, human PBMC, antibody 1 µg/mL, anti-human IgG Fc-Alexa Fluor647 (1:500), anti-hTcRβ-PerCP (1:30)
Description: PBMC cells were collected from a human subject. After being thawed, the cells were cultured for 3-4 hours. The medium was then discarded, and the cells were resuspended in phosphate-buffered saline (PBS). The cell concentration was then adjusted to 2×10⁶/25 μl PBS. A 96-well plate was prepared. 25 ul of cell suspension was added to each well. […] The cells and the antibodies were incubated. After centrifuge, the residues were discarded. The samples were washed again. […]
result-type: upper left quadrant, percent of cells AF647+ / hTcRβ-PerCP-

binder | value
1B1-H4K3-IgG1-LALA (antibody, V domains shown, Humanized; human IgG1 with LALA mutations; also called H4K3 (humanized 1B1)) VH: QVQLVQSGAEVVKPGASVKLSCKASGYTFTSYWMHWVRQRHGQGLEWIGNIYPDSGTTNYGEKFKTRGTLTVDTSTSTAYMELSSLRSEDTAVYYCTRDTSGQYYFDYWGQGTLVTVSS VL: DIVMTQSPDSLAVSAGERVTMNCKSSQSLLNSRTRKNYLAWYQHKPGQSPKLLIYWASTRESGVPDRFSGSGSGTDFTLTISSVQAEDVAVYYCVQSFSLRAFGGGTKLEIK | 10.2%
1B1-H2K1-IgG1-LALA (antibody, V domains shown, Humanized; human IgG1 with LALA mutations; also called H2K1 (humanized 1B1)) VH: QVQLVQSGAEVKKPGASVKLSCKASGYTFTSYWMHWVRQAPGQGLEWIGNIYPDSGTTNYGEKFKTRVTLTVDTSTSTAYMELSSLRSEDTAVYYCTRDTSGQYYFDYWGQGTLVTVSS VL: DIVMTQSPDSLAVSAGERATMNCKSSQSLLNSRTRKNYLAWYQHKPGQSPKLLIYWASTRESGVPDRFSGSGSGTDFTLTISSLQAEDVAVYYCVQSFSLRAFGGGTKVEIK | 10.8%
1B1-H2K3-IgG1-LALA (antibody, V domains shown, Humanized; human IgG1 with LALA mutations; also called H2K3 (humanized 1B1)) VH: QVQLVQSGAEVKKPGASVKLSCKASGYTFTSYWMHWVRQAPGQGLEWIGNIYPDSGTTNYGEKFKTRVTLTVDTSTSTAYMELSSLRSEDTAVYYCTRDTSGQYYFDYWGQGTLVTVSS VL: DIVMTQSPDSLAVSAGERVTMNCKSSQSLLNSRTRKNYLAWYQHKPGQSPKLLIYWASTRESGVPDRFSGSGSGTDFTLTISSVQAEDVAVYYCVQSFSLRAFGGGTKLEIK | 10.4%
